molecular target: UniProtKB P53350; experiment: PLK1 protein kinase assay (CDC25C phosphorylation, [γ-32P]-ATP); assay type: biochemical; conditions: Table 4; read-out: PLK1 IC50
pIC50: −log10 of the molar value.
Below, each entry is listed with its recorded pIC50.
Endpoint Label: pIC50

> print(dat)
                                   compound  endpoint.label  value.observed
1  COc1cc(C(=O)NC2CCN(C)CC2)ccc1Nc1ncc2c(n1)N(C1CCCC1)CC1(CC1)C(=O)N2C [WO 2007/095188 [I-76], reference compound]           pIC50          > 7.00
2  COc1cc(C(=O)NC2CCN(C)CC2)ccc1Nc1ncc2c(n1)N(C1CCCC1)CC1(CCC1)C(=O)N2C [WO 2007/095188 [I-64], reference compound]           pIC50          > 7.00
3  COc1cc(C(=O)NC2CN3CCC2CC3)ccc1Nc1ncc2c(n1)N(C1CCCC1)CC1(CCC1)C(=O)N2C (racemic)           pIC50          > 7.00

---

Below, each entry is listed with its recorded IC50.
target: PLK1 (Homo sapiens); assay: PLK1 protein kinase assay (CDC25C phosphorylation, [γ-32P]-ATP); assay type: biochemical; conditions: Table 1; read-out: PLK1 IC50
Sequence (P53350 whole entry): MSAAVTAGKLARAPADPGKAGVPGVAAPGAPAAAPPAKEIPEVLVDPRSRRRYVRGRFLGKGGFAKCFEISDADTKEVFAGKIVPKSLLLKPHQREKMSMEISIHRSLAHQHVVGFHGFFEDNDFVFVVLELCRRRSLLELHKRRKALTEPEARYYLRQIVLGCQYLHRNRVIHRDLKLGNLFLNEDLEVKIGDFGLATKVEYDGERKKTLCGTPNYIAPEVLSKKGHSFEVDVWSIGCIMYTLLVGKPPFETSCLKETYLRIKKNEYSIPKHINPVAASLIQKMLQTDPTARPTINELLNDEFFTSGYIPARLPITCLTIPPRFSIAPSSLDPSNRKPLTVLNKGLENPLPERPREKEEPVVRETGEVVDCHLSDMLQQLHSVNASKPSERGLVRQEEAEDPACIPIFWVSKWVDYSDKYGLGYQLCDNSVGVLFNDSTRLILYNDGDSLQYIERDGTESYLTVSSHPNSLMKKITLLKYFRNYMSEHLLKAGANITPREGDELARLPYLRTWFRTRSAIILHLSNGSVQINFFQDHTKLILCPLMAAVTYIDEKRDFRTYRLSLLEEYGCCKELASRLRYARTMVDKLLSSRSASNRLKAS
Endpoint Label: IC50

> print(dat)
                                   compound  value.observed
1  CCN1C(=O)C(C)CN(C2CCCC2)c2nc(Nc3ccc(C(=O)NC4CCN(C)CC4)cc3OC)ncc21 (stereo not shown) [compound 28]          < 1 µM
2  CC1CC(=O)N(C)c2cnc(Nc3ccc(C(=O)NC4CCN(C)CC4)cc3)nc2N1C1CCCC1 (stereo not shown) [compound 37]          < 1 µM
3  COc1cc(C(=O)NC2CCN(C)CC2)ccc1Nc1ncc2c(n1)N(C1CCCC1)C(C(C)C)CC(=O)N2 (stereo not shown) [compound 19]         < 10 µM
4  COc1cc(C(=O)NC2CCN(C)CC2)ccc1Nc1ncc2c(n1)N(C1CCCC1)C(C)CC(=O)N2 (stereo not shown) [compound 34]          < 1 µM
5  COc1cc(C(=O)NC2CCN(C)CC2)ccc1Nc1ncc2c(n1)N(C1CCCC1)CC(C)C(=O)N2 (stereo not shown) [compound 17]         < 10 µM
6  COc1cc(C(=O)NC2CCN(C)CC2)ccc1Nc1ncc2c(n1)N(C1CCCC1)CCC(=O)N2 [compound 36]         < 10 µM
7  COc1cc(C(=O)O)ccc1Nc1ncc2c(n1)N(C1CCCC1)C(C)CC(=O)N2 (stereo not shown) [compound 3]         < 10 µM

---

Target: UniProt:O14965
Sequence (O14965 1-403): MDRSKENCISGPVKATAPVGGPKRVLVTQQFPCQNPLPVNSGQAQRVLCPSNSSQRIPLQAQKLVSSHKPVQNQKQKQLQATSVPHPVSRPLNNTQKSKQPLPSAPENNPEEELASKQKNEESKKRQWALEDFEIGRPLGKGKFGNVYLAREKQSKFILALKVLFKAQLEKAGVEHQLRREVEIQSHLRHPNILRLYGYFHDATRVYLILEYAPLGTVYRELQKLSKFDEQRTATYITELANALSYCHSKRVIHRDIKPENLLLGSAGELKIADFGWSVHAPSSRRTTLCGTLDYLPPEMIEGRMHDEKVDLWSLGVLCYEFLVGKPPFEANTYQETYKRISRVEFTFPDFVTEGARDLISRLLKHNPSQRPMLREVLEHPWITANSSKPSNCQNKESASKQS
Test: AA IC50 (Table 1; no method given)
Assay type: biochemical
Settings: Table 2, AurA IC50; class symbols; read-out: AurA IC50
pIC50: −log10 of the molar value.
Endpoint Label: pIC50

> print(dat)
                                   compound  endpoint.label  value.observed
1  CCN1C(=O)CCNc2nc(Nc3ccc4c(c3)CS(=O)(=O)C4)ncc21 [compound 126]           pIC50          > 5.00
2  CN1C(=O)CCN(C2CCCC2)c2nc(Nc3ccc(CC(=O)O)cc3)ncc21 [compound 172]           pIC50          > 7.00
3  Cc1cc(Nc2ncc3c(n2)N(C2CCCC2)CCC(=O)N3C)ccc1NC(=O)C(C)(C)C [compound 287]           pIC50          > 7.00
4  Cc1cc2cc(Nc3ncc4c(n3)N(C3CCCC3)CCC(=O)N4C)ccc2[nH]1 [compound 125]           pIC50          > 7.00
